- method.summary: Inhibition of Plasmodium falciparum Plasmepsin X assessed as inhibition constant using DABCYL-G-PSFVEAPVRGG-EDANS as substrate by fluorescence based assay relative to control
metric.name: Ki (nM)
Dear colleague, please return just the value in nM, with no unit written.

## Input What Ki value was documented for this compound, "CN1CCN(Cc2ccc(C(=O)N[C@@H](Cc3ccccc3)[C@@H](O)CN3CCN(Cc4ccccc4)CC3)cc2)CC1" ?
## Output 910

---

- method.summary: Therapeutic index, ratio of TC50 for cytotoxicity against human HepG2 cells to IC50 for antiplasmodial activity against Plasmodium falciparum 3D7 infected in human red blood cells
- Type: toxicity, cell-based
- conditions.used: read-out: TI
metric.name: selectivity ratio
Answer field: number only, no words.

Example entries and their recorded answers appear below.
CN1CCN(Cc2ccc(C(=O)N[C@@H](Cc3ccccc3)[C@@H](O)CN3CCN(Cc4ccccc4)CC3)cc2)CC1    887
Cc1ccc(OCC(=O)N[C@@H](Cc2ccccc2)[C@@H](O)CN2CCN(Cc3ccccc3)CC2)cc1    1000
O=C(N[C@@H](Cc1ccccc1)[C@@H](O)CN1CCN(Cc2ccccc2)CC1)c1ccc(F)cc1    636
O=C(N[C@@H](Cc1ccccc1)[C@@H](O)CN1CCN(Cc2ccccc2)CC1)c1ccc(N2CCOCC2)cc1    1450

## Input What selectivity ratio value was documented for this molecule, "CN1CCN(c2ccc(C(=O)N[C@@H](Cc3ccccc3)[C@@H](O)CN3CCN(Cc4ccccc4)CC3)cc2)CC1" ?
## Output 189

## Input What selectivity ratio value was documented for this molecule, "O=C(N[C@@H](Cc1ccccc1)[C@@H](O)CN1CCN(Cc2ccccc2)CC1)c1cnccn1" ?
## Output 791

## Input What selectivity ratio value was documented for this molecule, "O=C(N[C@@H](Cc1ccccc1)[C@@H](O)CN1CCN(Cc2ccccc2)CC1)c1cnc2ccccc2c1" ?
## Output 400

---

- System: Plasmodium falciparum
- method.summary: Induction of mitochondrial membrane loss in Plasmodium falciparum 3D7 assessed as reduction in red-green ratio at IC50 concentration incubated for 3 hrs by JC-1 staining based spectrofluorometric analysis
- Type: functional
metric.name: Ratio
Answer field: number only, no words.

## Input What Ratio value was documented for this compound, "O=C(N[C@@H](Cc1ccccc1)[C@@H](O)CN1CCN(Cc2ccccc2)CC1)c1ccc(N2CCOCC2)cc1" ?
## Output 3.48

## Input What Ratio value was documented for this compound, "O=C(N[C@@H](Cc1ccccc1)[C@@H](O)CN1CCN(Cc2ccccc2)CC1)c1ccc(F)cc1" ?
## Output 3.73

## Input What Ratio value was documented for this compound, "O=C(N[C@@H](Cc1ccccc1)[C@@H](O)CN1CCN(Cc2ccccc2)CC1)c1cnccn1" ?
## Output 4.07

## Input What Ratio value was documented for this compound, "Cc1cnc(C(=O)N[C@@H](Cc2ccccc2)[C@@H](O)CN2CCN(Cc3ccccc3)CC2)cn1" ?
## Output 4.28

---

- Test system: Plasmodium falciparum
- method.summary: Inhibition of Plasmodium falciparum plasmepsin X […] at 1 uM using DABCYL-G-PSFVEAPVRGG-EDANS as substrate by fluorescence based assay relative to control
Collected inhibition values appear next to each entry.
Dear colleague, please return just the value in %, with no unit written.

Cc1cnc(C(=O)N[C@@H](Cc2ccccc2)[C@@H](O)CN2CCN(Cc3ccccc3)CC2)cn1    8.79
O=C(N[C@@H](Cc1ccccc1)[C@@H](O)CN1CCN(Cc2ccccc2)CC1)c1cnc2ccccc2c1    11.7
O=C(N[C@@H](Cc1ccccc1)[C@@H](O)CN1CCN(Cc2ccccc2)CC1)c1ccc2ccccc2c1    17.7
O=C(N[C@@H](Cc1ccccc1)[C@@H](O)CN1CCN(Cc2ccccc2)CC1)c1ccc(N2CCOCC2)cc1    28.4

## Input Notebook entry, Plasmodium falciparum assay: inhibition of "O=C(N[C@@H](Cc1ccccc1)[C@@H](O)CN1CCN(Cc2ccccc2)CC1)c1cnccn1" = ?
## Output 21

## Input Notebook entry, Plasmodium falciparum assay: inhibition of CCC(C(=O)N[C@@H](Cc1ccccc1)[C@@H](O)CN1CCN(Cc2ccccc2)CC1)c1ccccc1 (stereo partly drawn) = ?
## Output 15.5

## Input Notebook entry, Plasmodium falciparum assay: inhibition of "O=C(N[C@@H](Cc1ccccc1)[C@@H](O)CN1CCN(Cc2ccccc2)CC1)c1ccc(F)cc1" = ?
## Output 0.92

## Input Notebook entry, Plasmodium falciparum assay: inhibition of "CN1CCN(c2ccc(C(=O)N[C@@H](Cc3ccccc3)[C@@H](O)CN3CCN(Cc4ccccc4)CC3)cc2)CC1" = ?
## Output 34

---

- System: Plasmodium falciparum
- method.summary: Inhibition of Plasmodium falciparum plasmepsin X […] at 1 uM using DABCYL-G-PSFVEAPVRGG-EDANS as substrate by fluorescence based assay relative to control
metric.name: inhibition

Example entries and their recorded answers appear below.
O=C(CCc1ccc(Br)cc1)N[C@@H](Cc1ccccc1)[C@@H](O)CN1CCN(Cc2ccccc2)CC1    21.5%
Cc1ccc(OCC(=O)N[C@@H](Cc2ccccc2)[C@@H](O)CN2CCN(Cc3ccccc3)CC2)cc1    24.5%
O=C(Cc1cccc(C(F)(F)F)c1)N[C@@H](Cc1ccccc1)[C@@H](O)CN1CCN(Cc2ccccc2)CC1    13.7%

## Input What inhibition value was documented for this compound, "O=C(Cc1ccccc1)N[C@@H](Cc1ccccc1)[C@@H](O)CN1CCN(Cc2ccccc2)CC1" ?
## Output 6.85%

## Input What inhibition value was documented for this compound, "CN1CCN(Cc2ccc(C(=O)N[C@@H](Cc3ccccc3)[C@@H](O)CN3CCN(Cc4ccccc4)CC3)cc2)CC1" ?
## Output 38.6%

---

- method.summary: Cytotoxicity against human HepG2 cells assessed as reduction in cell viability incubated for 48 hrs by MTT assay
- Format: toxicity, cell-based
- conditions.used: read-out: TC50
Mark 1 (yes) for CC50 at 48 h under 900 µM, 0 (no) if at or over.

Worked examples, 5 compounds total:
O=C(Cc1ccccc1)N[C@@H](Cc1ccccc1)[C@@H](O)CN1CCN(Cc2ccccc2)CC1    1 (yes)
CCC(C(=O)N[C@@H](Cc1ccccc1)[C@@H](O)CN1CCN(Cc2ccccc2)CC1)c1ccccc1 (stereo partly drawn)    0 (no)
O=C(Cc1cccc(C(F)(F)F)c1)N[C@@H](Cc1ccccc1)[C@@H](O)CN1CCN(Cc2ccccc2)CC1    0 (no)
O=C(CCc1ccc(Br)cc1)N[C@@H](Cc1ccccc1)[C@@H](O)CN1CCN(Cc2ccccc2)CC1    1 (yes)
O=C(N[C@@H](Cc1ccccc1)[C@@H](O)CN1CCN(Cc2ccccc2)CC1)c1ccc(N2CCOCC2)cc1    1 (yes)

## Input I wonder whether "CN1CCN(c2ccc(C(=O)N[C@@H](Cc3ccccc3)[C@@H](O)CN3CCN(Cc4ccccc4)CC3)cc2)CC1" has CC50 at 48 h below 900 µM. Can you tell?
## Output 1 (yes)

## Input I wonder whether "O=C(N[C@@H](Cc1ccccc1)[C@@H](O)CN1CCN(Cc2ccccc2)CC1)c1ccc2ccccc2c1" has CC50 at 48 h below 900 µM. Can you tell?
## Output 1 (yes)

## Input I wonder whether "CN1CCN(Cc2ccc(C(=O)N[C@@H](Cc3ccccc3)[C@@H](O)CN3CCN(Cc4ccccc4)CC3)cc2)CC1" has CC50 at 48 h below 900 µM. Can you tell?
## Output 1 (yes)

---

- method.summary: Cytotoxicity against human HepG2 cells assessed as reduction in cell viability incubated for 48 hrs by MTT assay
- Type: toxicity, cell-based
- conditions.used: read-out: TC50
Collected CC50 at 48 h values appear next to each entry.

Cc1ccc(OCC(=O)N[C@@H](Cc2ccccc2)[C@@H](O)CN2CCN(Cc3ccccc3)CC2)cc1    200 µM

## Input What CC50 at 48 h value was documented for this compound, "O=C(N[C@@H](Cc1ccccc1)[C@@H](O)CN1CCN(Cc2ccccc2)CC1)c1ccc(F)cc1" ?
## Output 267 µM

## Input What CC50 at 48 h value was documented for this compound, "O=C(N[C@@H](Cc1ccccc1)[C@@H](O)CN1CCN(Cc2ccccc2)CC1)c1cnccn1" ?
## Output 1000 µM

## Input What CC50 at 48 h value was documented for this compound, "O=C(N[C@@H](Cc1ccccc1)[C@@H](O)CN1CCN(Cc2ccccc2)CC1)c1cnc2ccccc2c1" ?
## Output 100 µM

## Input What CC50 at 48 h value was documented for this compound, "Cc1cnc(C(=O)N[C@@H](Cc2ccccc2)[C@@H](O)CN2CCN(Cc3ccccc3)CC2)cn1" ?
## Output 285 µM

---

- method.summary: Therapeutic index, ratio of TC50 for cytotoxicity against human HepG2 cells to IC50 for antiplasmodial activity against Plasmodium falciparum 3D7 infected in human red blood cells
- Type: toxicity, cell-based
- conditions.used: read-out: TI
metric.name: selectivity ratio
Answer field: number only, no words.

Example entries and their recorded answers appear below.
O=C(N[C@@H](Cc1ccccc1)[C@@H](O)CN1CCN(Cc2ccccc2)CC1)c1ccc2ccccc2c1    1560
O=C(Cc1cccc(C(F)(F)F)c1)N[C@@H](Cc1ccccc1)[C@@H](O)CN1CCN(Cc2ccccc2)CC1    900

## Input What selectivity ratio value was documented for this compound, "O=C(CCc1ccc(Br)cc1)N[C@@H](Cc1ccccc1)[C@@H](O)CN1CCN(Cc2ccccc2)CC1" ?
## Output 252

## Input What selectivity ratio value was documented for this compound, CCC(C(=O)N[C@@H](Cc1ccccc1)[C@@H](O)CN1CCN(Cc2ccccc2)CC1)c1ccccc1 (stereo partly specified) ?
## Output 1420

## Input What selectivity ratio value was documented for this compound, "Cc1cnc(C(=O)N[C@@H](Cc2ccccc2)[C@@H](O)CN2CCN(Cc3ccccc3)CC2)cn1" ?
## Output 232
